Tested on: Sandostatin
RUN DESCRIPTION: Recovery of structural integrity of Sandostatin in dry formulations following gamma irradiation (HPLC)
Type: physicochemical
EXPERIMENTAL SETUP: Table 8, singlet oxygen scavengers, structural integrity by HPLC, excipient:Sandostatin weight ratio 10:1, 25-40 kGy
EXPERIMENTAL ENDPOINT: Enzyme activity remaining after gamma-irradiation (%)
Write the answer as a number in %, unit excluded.

Example entries begin here.
>  <COMPOUND>
Cc1ncc(C[n+]2csc(CCO)c2C)c(N)n1 [Thiamine]

>  <ENDPOINT RESULT>
87.7

$$$$
>  <COMPOUND>
CSCC[C@H](N)C(=O)O [Methionine]

>  <ENDPOINT RESULT>
91.1

$$$$
>  <COMPOUND>
N[C@@H](Cc1c[nH]cn1)C(=O)O [Histidine]

>  <ENDPOINT RESULT>
85.0

$$$$

Let us examine a further case.
# input Quick check: Enzyme activity remaining after gamma-irradiation on Sandostatin, item N[C@@H](Cc1c[nH]c2ccccc12)C(=O)O [Tryptophan] ?
# output 82.2
